Data origin: patent US8143394B2

assay: CC50 assay (CellTiter-Glo) in Huh-7 HCV replicon cells; assay type: cell-based, human; conditions: human, 50% cytostatic concentration
This section presents compounds with their documented CC50 at 3 days values.

[[record]]
smiles_structure = "CC(C)Oc1nc(N)nc2ccc(-c3ccc(NC(=O)C(C)C)cc3)nc12"
reported_endpoint = "CC50 at 3 days"
measured_result = "> 20 µM"

[[record]]
smiles_structure = "COCCOc1nc(N)nc2ccc(-c3ccc(NC(=O)OC)cc3)nc12"
reported_endpoint = "CC50 at 3 days"
measured_result = "> 20 µM"


### Prompt // lookup CC50 at 3 days for CC(C)Oc1nc(N)nc2ccc(-c3ccc(C(=O)NC4CCCC4)cc3)nc12
### Response > 20 µM

### Prompt Could you share which CC50 at 3 days value was measured for CNC(=O)c1ccc(-c2ccc3nc(N)nc(OC(C)C)c3n2)cc1Cl ?
### Response > 20 µM

### Prompt Please look up its CC50 at 3 days: CCOc1nc(N)nc2ccc(-c3ccc(C(=O)NC4CC4)c(Cl)c3)nc12
### Response > 20 µM

### Prompt Name the recorded CC50 at 3 days for CCOc1nc(N)nc2ccc(-c3ccc(-c4nnc(C)o4)cc3)nc12 .
### Response > 20 µM

### Prompt Which value of CC50 at 3 days has been reported for COc1nc(N)nc2ccc(-c3ccc(C(=O)NC4CC4)cc3)nc12 in the records?
### Response 10 to 20 µM

### Prompt If you can, please state the reported CC50 at 3 days value of CC(C)C(=O)Nc1ccc(-c2ccc3nc(N)nc(OCCF)c3n2)cc1 .
### Response > 20 µM

### Prompt Query: CC50 at 3 days; subject: CCOc1nc(N)nc2ccc(-c3ccc(NC(=O)OC)cc3)nc12
### Response > 20 µM

### Prompt Find the recorded CC50 at 3 days belonging to CC(C)(N)C(=O)Nc1ccc(-c2ccc3nc(N)nc(O[C@@H]4CCOC4)c3n2)cc1F and report it.
### Response > 20 µM

### Prompt # query: CC50 at 3 days of entry CCOc1nc(N)nc2ccc(-c3ccc(C(=O)NC(C)(C)C)cc3)nc12
### Response > 20 µM

### Prompt Can you look up the measured CC50 at 3 days of CC(C)C(=O)Nc1ccc(-c2ccc3nc(N)nc(O[C@H]4CCOC4)c3n2)cc1 for me?
### Response > 20 µM

### Prompt Form field: reported CC50 at 3 days of CCOc1nc(N)nc2ccc(-c3ccc(C(=O)NCCN(C)C)cc3)nc12
### Response 10 to 20 µM

### Prompt Tell me the measured CC50 at 3 days of CCCCNC(=O)c1ccc(-c2ccc3nc(N)nc(OC(C)C)c3n2)cc1 , please.
### Response > 20 µM

### Prompt Can you look up the measured CC50 at 3 days of Nc1nc(O[C@@H]2CCOC2)c2nc(-c3ccc(N4CCCC4=O)cc3)ccc2n1 for me?
### Response > 20 µM

### Prompt Any idea what its CC50 at 3 days is? The compound is CCOc1nc(N)nc2ccc(-c3ccc(NC(=O)[C@@H](N)CO)cc3)nc12
### Response > 20 µM

### Prompt Dear colleague, I am looking for the recorded CC50 at 3 days of the following compound: Nc1nc(O[C@@H]2CCOC2)c2nc(-c3ccc(NC(=O)[C@H]4CCNC4)c(F)c3)ccc2n1
### Response > 20 µM

### Prompt // returns reported CC50 at 3 days for input CCOc1nc(N)nc2ccc(-c3ccc(NC(=O)C4CC4)cc3)nc12
### Response > 20 µM
